System: S. aureus ATCC strains and MRSA
Format: cell-based, Staphylococcus aureus
Cond: Sa15 (MRSA)

{"Compound": "CC(=O)NC[C@H]1CN(c2ccc(N3CCOCC3)c(F)c2)C(=O)O1 [LZD, linezolid]", "Antibiotic susceptibility": "S"}
{"Compound": "O=C1CN(/N=C/c2ccc([N+](=O)[O-])o2)C(=O)N1 [NIT, Nitrofurantoin]", "Antibiotic susceptibility": "S"}
{"Compound": "CN(C)[C@@H]1C(O)=C(C(N)=O)C(=O)[C@@]2(O)C(O)=C3C(=O)c4c(O)cccc4[C@@](C)(O)[C@H]3C[C@@H]12 [TET, Tetracycline]", "Antibiotic susceptibility": "S"}
{"Compound": "COc1c(N2C[C@@H]3CCCN[C@@H]3C2)c(F)cc2c(=O)c(C(=O)O)cn(C3CC3)c12 [MXF, moxifloxacin]", "Antibiotic susceptibility": "R"}

---

Test system: S. aureus ATCC strains and MRSA
Assay type: cell-based, Staphylococcus aureus
Cond: Sa17 (MRSA)
Value Type: Antibiotic susceptibility

{"Record Smiles": "O=C(O)c1cn(C2CC2)c2cc(N3CCNCC3)c(F)cc2c1=O", "Target Under Test": "S. aureus ATCC strains and MRSA", "Assay Value": "R"}
{"Record Smiles": "CC[C@H]1OC(=O)[C@H](C)[C@@H](O[C@H]2C[C@@](C)(OC)[C@@H](O)[C@H](C)O2)[C@H](C)[C@@H](O[C@@H]2O[C@H](C)C[C@H](N(C)C)[C@H]2O)[C@](C)(O)C[C@@H](C)C(=O)[C@H](C)[C@@H](O)[C@]1(C)O", "Target Under Test": "S. aureus ATCC strains and MRSA", "Assay Value": "R"}
{"Record Smiles": "CN(C)[C@@H]1C(O)=C(C(N)=O)C(=O)[C@@]2(O)C(O)=C3C(=O)c4c(O)cccc4[C@@](C)(O)[C@H]3C[C@@H]12", "Target Under Test": "S. aureus ATCC strains and MRSA", "Assay Value": "S"}

---

Tested on: S. aureus (ATCC 29213)
Test Summary: MIC80 on S. aureus
Assay type: cell-based, Staphylococcus aureus
Cond: Staphylococcus aureus, ATCC 29213 / MSSA, read-out: MIC80 S. aureus, S. aureus ATCC 29213 (MSSA); ≥80% growth inhibition
Value Type: MIC80 (µM)
Field: numeric (µM). Do not append units.

Q. Form field: reported MIC80 of Cc1cc(O)c(=O)c(O)cc1C(=O)c1cccs1
A. 44.4

Q. Returns the measured MIC80 for the input compound. Input: O=c1ccc2ccccc2n1O
A. 13.2

Q. Which measured MIC80 value corresponds to O=C(Oc1cccccc1=O)c1ccccc1 ?
A. 19.8

Q. What MIC80 value was documented for this compound, Cc1ccc(C(=O)Sc2cccccc2=O)cc1 ?
A. 15

Q. # get_value(readout='MIC80', item= Cc1cc(O)c(=O)c(O)cc1C(=O)C1CCCCC1 )
A. 19.8

Q. Item under review: Cc1cccc(C(=O)Oc2cccccc2=O)c1 . Reported MIC80?
A. 15.4

Q. Fill blank: measured MIC80 of the compound O=c1c(O)ccc(-c2ccccc2)cc1O is ____.
A. 19.8

Q. Item O=C(O)c1cn(Cc2cccc3ccccc23)c2ccccc2c1=O has what recorded MIC80?
A. 13.2

Q. // returns reported MIC80 for input O=c1ccccc(Br)c1O
A. 16.1

Q. I have this compound here, COc1ccccc1C(=O)Oc1cccccc1=O , and I need its recorded MIC80.
A. 10.3

Q. I'd like to know its MIC80. The compound in question is O=C(Oc1cccccc1=O)c1ccc(Cl)cc1
A. 16.5
